target: aurora B (Homo sapiens, UniProt Q96GD4); experiment: radioisotope-based P81 filter-binding assay, aurora B kinase; format: biochemical; settings: averaged from two independent dose-response curves; read-out: Enzyme assay IC50 Aur B
Sequence (Q96GD4 whole entry): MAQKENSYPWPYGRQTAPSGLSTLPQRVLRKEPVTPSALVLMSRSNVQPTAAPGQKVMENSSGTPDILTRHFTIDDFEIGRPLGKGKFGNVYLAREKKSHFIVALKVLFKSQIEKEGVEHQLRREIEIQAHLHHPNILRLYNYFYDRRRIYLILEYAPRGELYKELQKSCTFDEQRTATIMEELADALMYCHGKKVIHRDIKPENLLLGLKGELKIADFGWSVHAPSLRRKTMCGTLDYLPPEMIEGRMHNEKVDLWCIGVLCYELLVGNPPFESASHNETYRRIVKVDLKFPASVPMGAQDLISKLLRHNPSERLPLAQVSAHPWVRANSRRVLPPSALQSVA
value_kind: IC50 (nM)
State the answer as a number, implicitly in nM.

O=C1Nc2cc(NC(=O)c3c[nH]cc(-c4ccc(C(F)(F)F)cc4)c3=O)ccc2/C1=C/c1ccc[nH]1 | 348
COc1ccc(C(=O)NC(=O)Nc2ccc3c(c2)NC(=O)/C3=C\c2[nH]c(C)c(CC(=O)O)c2C)cc1 | 1.8
Cc1[nH]c(/C=C2\C(=O)Nc3cc(NC(=O)NC(=O)c4ccccc4F)ccc32)c(C)c1CCC(=O)O | 1.5

Now let's try a different one.
Request: Give me measured IC50, please, for this compound: "Cc1ccc(-n2cccc(C(=O)Nc3ccc4c(c3)NC(=O)/C4=C\c3ccc[nH]3)c2=O)cc1"
Result: 209
